Value source: patent US5589510A

inhibition at 5 µg/mL by entry:
Test system: HIV-1 RF
assay overview: Antiviral assay, Experimental Protocol I (compound added after infection)
Format: cell-based
measurement setup: Human immunodeficiency virus 1, 240 h, 10% FCS, 5 μg/ml, p24 ELISA, read-out: % Inhibition (after day 10)
Hey, just the number and the unit after it is fine.

The following molecules have reported results that may help.
COc1cc(N=Nc2c(S(=O)(=O)O)cc3cc(S(=O)(=O)O)cc(NC(=O)c4cc(Cl)ccc4Cl)c3c2O)c(OC)cc1N=Nc1c(S(=O)(=O)O)cc2cc(S(=O)(=O)O)cc(NC(=O)c3ccc(Cl)c(Cl)c3)c2c1O: 100%
COc1cc(N=Nc2c(S(=O)(=O)O)cc3cc(S(=O)(=O)O)cc(NC(=O)c4cccc5ccccc45)c3c2O)c(OC)cc1N=Nc1c(S(=O)(=O)O)cc2cc(S(=O)(=O)O)cc(NC(=O)c3ccc(Cl)cc3Cl)c2c1O: 100%
Cc1ccc(C(=O)Nc2ccc(S(=O)(=O)O)c3cc(S(=O)(=O)O)cc(S(=O)(=O)O)c23)cc1NC(=O)c1cccc(NC(=O)Nc2cccc(C(=O)Nc3cc(C(=O)Nc4ccc(S(=O)(=O)O)c5cc(S(=O)(=O)O)cc(S(=O)(=O)O)c45)ccc3C)c2)c1 [Suramin, reference compound]: 0%
COc1cc(N=Nc2c(S(=O)(=O)O)cc3cc(S(=O)(=O)O)cc(NC(=O)c4ccc(Cl)cc4Cl)c3c2O)c(OC)cc1N=Nc1c(S(=O)(=O)O)cc2cc(S(=O)(=O)O)cc(NC(=O)c3ccc(Cl)cc3Cl)c2c1O: 100%
COc1cc(N=Nc2c(S(=O)(=O)O)cc3cc(S(=O)(=O)O)cc(NC(=O)c4cccc(Cl)c4Cl)c3c2O)c(OC)cc1N=Nc1c(S(=O)(=O)O)cc2cc(S(=O)(=O)O)cc(NC(=O)c3cccc(Cl)c3Cl)c2c1O: 99%

Next molecule, please.
Returns the measured inhibition at 5 µg/mL for the input molecule. Input: "O=C(Nc1cc(S(=O)(=O)O)cc2cc(S(=O)(=O)O)c(N=Nc3ccc(N=Nc4c(O)ccc5ccc(S(=O)(=O)O)cc45)cc3Cl)c(O)c12)c1ccccc1" 99%
